Origin of values: patent US10004732B2

Please go through the items and note down their pIC50.
Target: PI 3-kinase beta (Homo sapiens)
Sequence (P42338 whole entry): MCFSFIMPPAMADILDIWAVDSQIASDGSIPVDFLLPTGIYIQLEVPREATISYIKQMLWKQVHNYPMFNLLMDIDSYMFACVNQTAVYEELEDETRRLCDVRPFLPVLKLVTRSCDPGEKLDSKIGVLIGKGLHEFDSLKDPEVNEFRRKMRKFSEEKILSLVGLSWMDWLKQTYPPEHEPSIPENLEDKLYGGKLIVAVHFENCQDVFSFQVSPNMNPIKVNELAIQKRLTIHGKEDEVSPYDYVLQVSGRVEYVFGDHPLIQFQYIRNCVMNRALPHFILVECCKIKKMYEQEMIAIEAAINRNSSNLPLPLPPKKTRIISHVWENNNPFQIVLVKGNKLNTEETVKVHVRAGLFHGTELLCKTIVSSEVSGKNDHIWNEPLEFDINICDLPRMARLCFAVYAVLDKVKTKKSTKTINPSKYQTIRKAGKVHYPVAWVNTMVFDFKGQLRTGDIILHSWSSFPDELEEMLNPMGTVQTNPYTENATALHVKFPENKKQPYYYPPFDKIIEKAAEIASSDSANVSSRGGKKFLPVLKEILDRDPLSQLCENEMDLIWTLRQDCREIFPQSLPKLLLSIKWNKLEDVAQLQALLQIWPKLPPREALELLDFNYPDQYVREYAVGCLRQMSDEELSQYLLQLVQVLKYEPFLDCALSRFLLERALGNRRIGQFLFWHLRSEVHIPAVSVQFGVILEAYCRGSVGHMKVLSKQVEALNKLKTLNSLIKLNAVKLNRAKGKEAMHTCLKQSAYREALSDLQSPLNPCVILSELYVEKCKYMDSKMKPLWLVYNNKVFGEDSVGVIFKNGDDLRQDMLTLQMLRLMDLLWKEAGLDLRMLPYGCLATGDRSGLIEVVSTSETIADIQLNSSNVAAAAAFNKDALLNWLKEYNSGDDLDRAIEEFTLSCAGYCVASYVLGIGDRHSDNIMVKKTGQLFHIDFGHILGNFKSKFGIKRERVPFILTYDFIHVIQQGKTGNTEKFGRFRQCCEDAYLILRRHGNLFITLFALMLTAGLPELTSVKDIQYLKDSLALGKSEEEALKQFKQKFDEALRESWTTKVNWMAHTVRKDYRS
Sequence (Q63787 whole entry partner): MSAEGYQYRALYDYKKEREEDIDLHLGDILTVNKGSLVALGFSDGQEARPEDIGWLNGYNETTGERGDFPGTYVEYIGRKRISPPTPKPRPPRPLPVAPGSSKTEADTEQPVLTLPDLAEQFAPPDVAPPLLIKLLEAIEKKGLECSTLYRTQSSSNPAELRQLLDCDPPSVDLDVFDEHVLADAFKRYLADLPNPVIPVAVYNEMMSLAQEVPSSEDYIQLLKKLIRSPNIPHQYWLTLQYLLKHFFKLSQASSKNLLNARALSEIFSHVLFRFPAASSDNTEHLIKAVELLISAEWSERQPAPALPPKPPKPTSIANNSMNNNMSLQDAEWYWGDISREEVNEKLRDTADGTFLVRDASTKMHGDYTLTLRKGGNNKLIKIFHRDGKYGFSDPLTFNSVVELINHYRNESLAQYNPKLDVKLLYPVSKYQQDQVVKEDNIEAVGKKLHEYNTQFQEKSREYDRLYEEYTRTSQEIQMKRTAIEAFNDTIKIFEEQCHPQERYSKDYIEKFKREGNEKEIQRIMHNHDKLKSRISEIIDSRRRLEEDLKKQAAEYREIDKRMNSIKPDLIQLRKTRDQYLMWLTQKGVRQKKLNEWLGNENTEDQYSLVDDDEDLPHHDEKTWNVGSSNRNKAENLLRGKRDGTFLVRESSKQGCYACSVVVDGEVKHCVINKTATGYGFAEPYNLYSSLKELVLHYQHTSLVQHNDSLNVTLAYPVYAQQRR
Test: Cellular assay I1, p-Akt (S473) in Rat-1 cells, Surefire format
Type: cell-based
Conditions: non-asterisked data: version I1 (Surefire format), Rat-1 cells; read-out: Assay I PI3Kβ IC50
pIC50 field: float, defined as -log10 of concentration (mol/L).

(Q) Recorded pIC50 for Cc1ccc(S(=O)(=O)NCCC(C)(C)O)cc1-c1cnc(N)c(-c2cnn(CC(C)C)c2)n1 , please?
(A) 5.22

(Q) Data request, read-out pIC50, for Cc1ccc(S(=O)(=O)NCCC(C)(C)O)cc1-c1cnc(N)c(-c2ccncc2F)n1
(A) 5.45

(Q) Quick check: pIC50 of CCN1CCC[C@@H]1CNS(=O)(=O)c1ccc(C)c(-c2cnc(N)c(-n3cncn3)n2)c1 ?
(A) 5.81

(Q) Which pIC50 value is on record for CCN1CCC[C@@H]1CNS(=O)(=O)c1ccc(C)c(-c2cnc(N)c(-c3cnc(C)s3)n2)c1 ?
(A) 6.01

(Q) // query pIC50 value for entry Cc1ccc(S(=O)(=O)N[C@H]2CC[C@H](O)CC2)cc1-c1cnc(N)c(-c2ccnc(F)c2)n1
(A) 5.51

(Q) Name the recorded pIC50 for COc1nc(-c2nc(-c3cc(S(=O)(=O)NCCC(C)(C)O)ccc3C)cnc2N)cs1 .
(A) 5.76

(Q) Report pIC50 for Cc1ncc(-c2nc(-c3cc(S(=O)(=O)NCC(C)(C)CO)ccc3C)cnc2N)s1 please.
(A) 5.22

(Q) Consider the compound shown here: Cc1ccc(S(=O)(=O)NCC2(C)COC2)cc1-c1cnc(N)c(-c2cn(C)nc2C)n1 What is its recorded pIC50?
(A) 5.08

(Q) Quick check: pIC50 of Cc1cc(F)c(S(=O)(=O)NCCC(C)(C)O)cc1-c1cnc(N)c(-n2cncn2)n1 ?
(A) 5.32

(Q) Find the recorded pIC50 belonging to CCn1cc(-c2nc(-c3cc(S(=O)(=O)NCCC(C)(C)O)ccc3C)cnc2N)cn1 and report it.
(A) 5.13

(Q) Entry under review: Cc1ccc(S(=O)(=O)NCC(C)(C)O)cc1-c1cnc(N)c(-c2cnc(C3CC3)s2)n1 . Reported pIC50?
(A) 6.23

(Q) Param item = Cc1ccc(S(=O)(=O)NCCC(C)(C)O)cc1-c1cnc(N)c(-c2cccnc2Cl)n1 ; retrieve measured pIC50.
(A) 5.76

(Q) Query: pIC50; subject: Cc1ncc(-c2nc(-c3cc(S(=O)(=O)NC[C@H]4CCOC4)ccc3C)cnc2N)s1
(A) 6.10

(Q) # input compound: Cc1ccc(S(=O)(=O)NCC(C)(C)O)cc1-c1cnc(N)c(-n2cncn2)n1 ; wanted: its pIC50
(A) 5.14

----------
Tested on: IL-8-induced neutrophil shape change in human whole blood
Test: Whole blood neutrophil shape change assay (L)
Assay type: cell-based
Conditions: Homo sapiens, Neutrophil, IL-8, human whole blood, read-out: Assay L WBSC IC50
Please use the following IC50 ranges when assigning a class: bottom bin (below 700 nM), middle bin (700 nM to below 1000 nM), top bin (1000 nM or more)

(Q) Exam item: assign Cc1ccc(S(=O)(=O)NOCC(C)(C)O)cc1-c1cnc(N)c(-c2cn(C)nc2C)n1 to the correct category.
(A) middle bin

(Q) Each compound maps to one class by IC50. Which class for Cc1ccc(S(=O)(=O)NCCC(C)(C)O)cc1-c1cnc(N)c(-c2cscn2)n1 ?
(A) top bin

(Q) Class? Entry: Cc1ccc(S(=O)(=O)N2CC(F)C2)cc1-c1cnc(N)c(-n2cncn2)n1
(A) top bin

(Q) Could you place Cc1cc(-c2nc(-c3cc(S(=O)(=O)N[C@H]4CC[C@H](O)CC4)ccc3C)cnc2N)on1 in its proper category? Many thanks.
(A) bottom bin

(Q) Band assignment needed for Cc1ccc(S(=O)(=O)NCC2CNCCO2)cc1-c1cnc(N)c(-c2cn(C)nc2C)n1 (stereo not shown) please.
(A) top bin

(Q) Assign a bin to Cc1ccc(S(=O)(=O)NCC(C)(C)O)cc1-c1cnc(N)c(-c2cnn(C)c2C)n1
(A) middle bin

(Q) # classify by IC50 band: Cc1ccc(S(=O)(=O)NC2CC3(CC(O)C3)C2)cc1-c1cnc(N)c(-n2cncn2)n1 (stereo not shown)
(A) bottom bin

(Q) GET /class?item= Cc1ncn(-c2nc(-c3cc(S(=O)(=O)NCCC(C)(C)O)ccc3C)cnc2N)n1
(A) middle bin

(Q) For the record Cc1ccc(S(=O)(=O)NC[C@H]2CCOC2)cc1-c1cnc(N)c(-c2cn(C)nc2C)n1 , report the class its IC50 corresponds to.
(A) bottom bin

(Q) Which IC50 band matches Cc1ccc(S(=O)(=O)N[C@H]2CC[C@H](O)CC2)cc1-c1cnc(N)c(-c2nc(C(C)C)no2)n1 ?
(A) bottom bin

(Q) Which bin should I file Cc1ncc(-c2nc(-c3cc(S(=O)(=O)NC[C@H]4C[C@@H](O)C4)ccc3C)cnc2N)s1 [Example 20a] under?
(A) bottom bin

(Q) Form: Item = Cc1ccc(S(=O)(=O)NCC(C)(C)O)cc1-c1cnc(N)c(-c2nc(C3CC3)no2)n1 ; Class = ?
(A) top bin

(Q) Category of Cc1ccc(S(=O)(=O)N[C@H]2CC[C@H](O)CC2)cc1-c1cnc(N)c(-c2nc(C3CC3)no2)n1 :
(A) bottom bin

(Q) Which category fits this record: Cc1ccc(S(=O)(=O)NCC2(C)COC2)cc1-c1cnc(N)c(-n2cncn2)n1
(A) middle bin

(Q) Just checking, what class would you give Cc1ccc(S(=O)(=O)NCC(C)(C)O)cc1-c1cnc(N)c(-n2cnc(C3CC3)n2)n1 here?
(A) middle bin
